- Test system: Coxsackievirus B3
- experiment description: Antiviral activity against coxsackievirus B3 in HeLa S3 cells assessed as reduction in viral titer
- Type: functional, organism-based
Activity calls are given as the source filed them. No cut-off for these calls is given here.

{"columns": ["smiles input", "tgt", "Activity"],
 "data": [
  ["Nc1nc(=O)n([C@H]2C[C@H](O)[C@@H](CO)O2)cc1O", "Coxsackievirus B3", "inactive"],
  ["Nc1cn([C@@H]2O[C@H](CO)[C@@H](O)[C@H]2O)c(=O)nc1N", "Coxsackievirus B3", "Active"],
  ["Nc1nc(=O)n([C@@H]2O[C@H](CO)[C@@H](O)[C@H]2O)cc1[N+](=O)[O-]", "Coxsackievirus B3", "Active"],
  ["Nc1nc(=O)n([C@H]2C[C@H](O)[C@@H](CO)O2)cc1Br", "Coxsackievirus B3", "inactive"]
]}

The reported measurements were obtained from ChEMBL document CHEMBL1137395.
